Record form. Attribute: growth. Fill in for each entry.
Tested on: HCC-2998 colon
protocol: NCI-60 one-dose screen, 48 h (100 = growth as untreated, 0 = no growth, -100 = all killed)
conditionSummary: 10 µM unless noted
Compounds without any hit were thinned out: in the full panel of roughly 83,000, 20% have a hit. Activity calls are given as the source filed them. The calls were made as follows: active = growth percent below 10; inactive = the rest.

Reference set (3 entries):
compound | testValue
Cc1ccc(C(=O)CSc2nc3ccc(C)cc3c(=O)n2-c2ccc(F)cc2)cc1 | 83.5% (inactive)
COc1cc(/C=C/C(=O)c2ccccc2)ccc1Oc1nc(Nc2ccc(F)cc2)nc(N(C)C)n1 | 59% (inactive)
O=c1oc2ccc(Br)cc2cc1C1=CSc2nc3sc4c(c3c(=O)n2N=C1)CCCC4 | 125% (inactive)

Hello, I would appreciate it if you could give growth for each entry below.
1. CCCSc1nc(Nc2ccc(S(N)(=O)=O)cc2)c(C#N)c(-c2ccc(Cl)cc2)n1
2. N/C(=N\c1nc2ccccc2s1)NC(=O)Nc1c(Cl)cccc1Cl

Completion:
["8.65% (active)", "68.6% (inactive)"]

Hello, I would appreciate it if you could give growth for each entry below.
1. COc1ccc(/C=C2\C(=O)Nc3ccc(Cl)cc32)cc1OCc1ccccn1
2. COc1ccc2[nH]cc(-c3nnc(N)nc3-c3cn(C)c4ncc(Br)cc34)c2c1
3. CCOC(=O)C1=C(N)N(c2ccccc2)C2=C(C(=O)CC(C)(C)C2)C1c1ccccc1Cl (stereo not given)

Completion:
79.6% (inactive)
80.2% (inactive)
85.6% (inactive)

Hello, I would appreciate it if you could give growth for each entry below.
1. CCCCSc1nc(NCCc2c[nH]c3ccccc23)c(C#N)c(-c2ccc(F)cc2)n1
2. COc1ccc(C2=NN(c3ccccc3)C(c3ccc(OC)c(OCc4ccccc4)c3)C2)cc1OC (stereo not given)
3. N#Cc1c(-c2cccc(O)c2O)cc(-c2ccc3ccccc3c2)[nH]c1=O
4. COc1cc(C2CC(c3cc(OC)c(OC)c(OC)c3)=NN2c2ccccc2)ccc1OCc1ccc(C)cc1 (stereo not given)
5. O=C(COc1ccc(NC(=O)Nc2ccc(Cl)c(Cl)c2)cc1)N=Nc1c(O)[nH]c2ccc(Br)cc12
6. CCCCNC(=S)Nc1ccc(OCc2nc3ccccc3[nH]2)cc1
7. Nc1nc(-c2ccccc2)c(N=Nc2ccc(Cl)cc2[N+](=O)[O-])s1
8. COc1ccc(-c2ccnc(SCc3cc4ccccc4[nH]c3=O)n2)cc1OC

Completion:
["64.9% (inactive)", "107% (inactive)", "74.3% (inactive)", "110% (inactive)", "-67.3% (active)", "59.6% (inactive)", "102% (inactive)", "5.44% (active)"]

====

Tested on: KM12 colon
protocol: NCI-60 one-dose screen, 48 h
conditionSummary: 10 µM unless noted
About 83,000 compounds went through this panel and 20% of them were active in at least one assay; those are over-represented in the sample as a whole. Active and inactive are the calls of the source. Rule for the calls: active = growth percent below 10; inactive = the rest.
Select the correct class. Options are active, inactive and nothing else.

molecule | category
COc1ccc(C(=O)/C=C/c2c(F)cccc2Cl)cc1S(N)(=O)=O | active
CC1[C@H]2[C@H](C[C@H]3[C@@H]4CC=C5c6sc(Nc7ccccc7F)nc6CC[C@]5(C)[C@H]4CC[C@@]32C)O[C@]12CC[C@@H](C)CO2 (some centres not stated) | active
CC1(C)CC[C@]2(C(=O)O)CC[C@]3(C)C(=CCC4[C@@]5(C)C[C@@H](O)[C@@H]6OC(c7ccccc7F)OC[C@@]6(C)C5CC[C@]43C)C2C1 (some centres not stated) | active
C=C1CC[C@@H]2[C@]3(C)COC(c4ccccc4)O[C@@H]3CC[C@@]2(C)[C@@H]1C/C=C1/C(=O)OCC1OC(C)=O (some centres not stated) | active
CC(=O)NNc1ccc2nnc(-c3ccccc3)n2n1 | inactive
O=C1Nc2cc(Cl)ccc2/C1=C/c1cccc(OCc2ccccn2)c1 | inactive
Cn1cc(-c2nnc(N)nc2-c2c[nH]c3ccc(F)cc23)c2cccnc21 | inactive
CCCCSc1nc(Nc2ccc(S(N)(=O)=O)cc2)c(C#N)c(-c2ccc(Cl)cc2)n1 | inactive
CN1CCN(c2ccc3c(c2)nc(NNC(=O)c2cnccn2)c2cccn23)CC1 | active
N=C1N=C(SCc2nc3ccccc3[nH]2)NC(=O)/C1=C/c1ccc(Cl)cc1 | inactive

Prompt: What classification did C#CCOc1cc(N(CC)CC)ccc1C(C(=O)NC(C)(C)C)N(C(=O)C1CCc2cc(F)ccc2O1)c1ccc(F)cc1 (configuration not stated) end up with in this test?
Completion: inactive

Prompt: What classification did CCCCCCCCc1ccc(C(=O)Nc2cccc(P(=O)(O)O)c2)cc1 end up with in this test?
Completion: inactive

Prompt: What classification did COc1cc(OC)cc(-c2cc3ccc(N(C)C)cc3c(=O)[nH]2)c1 end up with in this test?
Completion: inactive
